The measured values listed here are drawn from PubChem BioAssay (NCI).

# growth inhibition annotations
assay explanation: NCI Yeast Anticancer Drug Screen. Data for the bub3 strain (AID 167)
test parameters: S. cerevisiae bub3 mutant strain, at 50.0 µM, active compounds read high
About 79,000 compounds went through this panel and 15% of them were active in at least one assay; those are over-represented in the sample as a whole. Where a SMILES comes first, the peptide text is derived from it. [ ]: non-standard residue; d: D form. The star is where a group is joined. ξ: configuration not given here. Cbz = O=C(OCc1ccccc1)*; ξM = CSCCC(N)C(=O)O
property name: growth inhibition (%)

[[record]]
compound = "CCN(CC)CCNc1ccc2ncn3c4ccccc4c(=O)c1c23"
unit_symbol = "%"
reported_value = 29.1

[[record]]
compound = "CSCCC(NC(=O)CNC(=O)CNC(=O)OCc1ccccc1)C(=O)O (stereo not drawn) (Cbz-Gly-Gly-[ξM]-OH)"
unit_symbol = "%"
reported_value = 99

[[record]]
compound = "CC(=O)OC/C=C/CN(C)C"
unit_symbol = "%"
reported_value = -6.2

[[record]]
compound = "O=C(NNCCO)C(O)C(O)C(O)C(O)CO (stereo unspecified)"
unit_symbol = "%"
reported_value = -4.7

[[record]]
compound = "CCOc1ccccc1NC(=O)c1c(Br)c(Br)c(Br)c(Br)c1C(=O)O"
unit_symbol = "%"
reported_value = 6.05

[[record]]
compound = "O=C1Nc2ccc3[nH]ncc3c2C1=O"
unit_symbol = "%"
reported_value = -9.55


---

assay explanation: NCI Yeast Anticancer Drug Screen. Data for the bub3 strain (AID 167)
test parameters: S. cerevisiae bub3 mutant strain, at 50.0 µM, active compounds read high
About 79,000 compounds went through this panel and 15% of them were active in at least one assay; those are over-represented in the sample as a whole.
# growth inhibition annotations
property name: growth inhibition (%)

[[record]]
molecule = "c1ccc(C2(c3ccccc3)SC2(c2ccccc2)c2ccccc2)cc1"
property_name = "growth inhibition"
unit_symbol = "%"
reported_value = 2.15

[[record]]
molecule = "CC(=O)OC[C@@H](COC(=O)/C=C/c1ccc(O)cc1)OC1OC(CO)C(O)C(O)C1O (stereo partly drawn)"
property_name = "growth inhibition"
unit_symbol = "%"
reported_value = -17.1

[[record]]
molecule = "CC(C)NC(=O)CS(=O)(=O)c1ccc(N)cc1"
property_name = "growth inhibition"
unit_symbol = "%"
reported_value = 30

[[record]]
molecule = "CCc1c(Cc2[nH]c(Cc3[nH]c(C=O)c(C)c3CC)c(CC)c2CC)[nH]c(C=O)c1C"
property_name = "growth inhibition"
unit_symbol = "%"
reported_value = -0.75

[[record]]
molecule = "CC(=O)Nc1cc(F)c2c(c1F)Cc1cc(F)ccc1-2"
property_name = "growth inhibition"
unit_symbol = "%"
reported_value = 5.15

[[record]]
molecule = "CC1(C)OS(=O)(=O)C=C1Br"
property_name = "growth inhibition"
unit_symbol = "%"
reported_value = -8.4

[[record]]
molecule = "CC1(C)CC(C)(C)c2c1oc(=O)c1c3c(oc(=O)c21)C(C)(C)CC3(C)C"
property_name = "growth inhibition"
unit_symbol = "%"
reported_value = 26.2

[[record]]
molecule = "CCCCCCC(c1c(O)cc(C)[nH]c1=O)c1c(O)cc(C)[nH]c1=O"
property_name = "growth inhibition"
unit_symbol = "%"
reported_value = -12.8

[[record]]
molecule = "O=c1oc2c(Cl)cc(Cl)cc2cc1-c1nc2ccccc2[nH]1"
property_name = "growth inhibition"
unit_symbol = "%"
reported_value = 14.1

[[record]]
molecule = "CCNc1ccc(N=Nc2ccc(-c3ccc(N=Nc4ccc(NCC)c5ccccc45)c(OC)c3)cc2OC)c2ccccc12"
property_name = "growth inhibition"
unit_symbol = "%"
reported_value = 26.9

[[record]]
molecule = "CC(=O)c1c2c(cc3c1CC1(C3)Cc3cc4c(c(C(C)=O)c3C1)CCC4)CCC2"
property_name = "growth inhibition"
unit_symbol = "%"
reported_value = -3.35

[[record]]
molecule = "O=[N+]([O-])c1ccc(/C=C(/c2ccc([N+](=O)[O-])o2)S(=O)(=O)C(Cl)(Cl)Cl)cc1"
property_name = "growth inhibition"
unit_symbol = "%"
reported_value = 90.1

[[record]]
molecule = "N#C/C(=C\\c1cccs1)C(N)=S"
property_name = "growth inhibition"
unit_symbol = "%"
reported_value = -9.1

[[record]]
molecule = "CCC1(CC)NC(=S)NC1=S"
property_name = "growth inhibition"
unit_symbol = "%"
reported_value = 16.4

[[record]]
molecule = "CCOC(=O)COc1ccc(Cl)cc1CCl"
property_name = "growth inhibition"
unit_symbol = "%"
reported_value = 21.9

[[record]]
molecule = "COc1cc2c(cc1C)C1=C(C)C(=O)OC1[C@@H](O)[C@@H]2C (stereo partly drawn)"
property_name = "growth inhibition"
unit_symbol = "%"
reported_value = 18.9

[[record]]
molecule = "CCCCCOP(=O)(OCCCCC)C(c1ccccc1)c1ccccc1"
property_name = "growth inhibition"
unit_symbol = "%"
reported_value = 9.5

[[record]]
molecule = "CN(C=O)c1ccc(C(=O)O)cc1"
property_name = "growth inhibition"
unit_symbol = "%"
reported_value = 17.6

[[record]]
molecule = "O=c1cnc2c(ccc3ccccc32)[nH]1"
property_name = "growth inhibition"
unit_symbol = "%"
reported_value = 8.4

[[record]]
molecule = "COC(=O)c1ccccc1CC1Cc2cc3c(cc2C1)CCC3"
property_name = "growth inhibition"
unit_symbol = "%"
reported_value = 4.3

[[record]]
molecule = "CC(=O)NNc1ccc(C(=O)O)cc1"
property_name = "growth inhibition"
unit_symbol = "%"
reported_value = -2.7

[[record]]
molecule = "COc1ccc2c(c1OC(C)=O)C1=CC(OC(C)=O)=CCC13CCN(C)C3C2 (stereo not drawn)"
property_name = "growth inhibition"
unit_symbol = "%"
reported_value = -6.4

[[record]]
molecule = "CCOC(=O)C1/C(=C\\O)C(=O)c2cc(OC)c(OC)cc2C1c1ccc(OC)c(OC)c1 (stereo not drawn)"
property_name = "growth inhibition"
unit_symbol = "%"
reported_value = -5.95

